The measured values listed here are drawn from patent US7968591B2.

assayed.target: 5-HT uptake (Rattus norvegicus)
Construct: from tissue; host or cells: rat brain medulla and pons, synaptosomes (P2 fraction)
test.method.notes: 5-HT uptake inhibition in rat brain synaptosomes
Format: biochemical
recorded.conditions: synaptosomes from rat medulla and pons, [3H]-5-HT

{"columns": ["compound", "assayed.target", "inhibition at 10 µM, %"],
 "data": [
  ["COc1ccc(OCCNC(=O)c2c(-c3ccccc3)c(C)cn2Cc2ccccc2)cc1 [Example 62]", "5-HT uptake (Rattus norvegicus)", 73],
  ["CCOc1ccc(Br)cc1CN1CCN(C(=O)c2c(-c3ccccc3)c(C)cn2C)CC1 [Example 41]", "5-HT uptake (Rattus norvegicus)", 37],
  ["CCn1cc(C)c(-c2ccc(Cl)cc2)c1C(=O)NC(C(=O)OC(C)(C)C)C(C)C (stereo not shown) [Example 36]", "5-HT uptake (Rattus norvegicus)", 74],
  ["Cc1ccc(-c2c(C)cn(Cc3c(Cl)cccc3Cl)c2C(=O)N(C)CCc2ccccn2)cc1 [Example 19]", "5-HT uptake (Rattus norvegicus)", 39]
]}

* * *

assayed.target: 5-HT uptake (Rattus norvegicus)
Construct: from tissue; host or cells: rat brain medulla and pons, synaptosomes (P2 fraction)
test.method.notes: 5-HT uptake inhibition in rat brain synaptosomes
Type: biochemical
recorded.conditions: synaptosomes from rat medulla and pons, [3H]-5-HT
Protocol: I. Method for Determining Noradrenalin and 5-HT Uptake Inhibition: […] The tissue (hypothalamus for the determination of noradrenalin uptake inhibition and medulla and pons for the determination of 5-HT uptake inhibition) was homogenized in ice-cooled 0.32 M sucrose (100 mg of tissue/1 mL) in a glass homogenizer with Teflon pestle using five complete up and down strokes at 840 revolutions/minute. […] The particular uptake was measured in a 96-well microtitre plate. […]
assay.readout: inhibition at 10 µM (%)

{"columns": ["compound", "readout.units", "observed.result"],
 "data": [
  ["COc1ccc(CNC(=O)c2c(-c3ccco3)c(C)cn2Cc2ccc(F)cc2)c(OC)c1 [Example 3]", "%", 58],
  ["CCCCn1cc(C)c(-c2ccc(C)cc2)c1C(=O)NCCc1ccccn1 [Example 4]", "%", 39],
  ["Cc1cn(Cc2ccccc2)c(C(=O)NCCc2ccc(Br)cc2)c1-c1ccco1 [Example 60]", "%", 67],
  ["Cc1ccccc1N1CCN(C(=O)c2c(-c3ccc(Cl)cc3)c(C)cn2C)CC1 [Example 46]", "%", 34],
  ["CCOc1ccc(CCNC(=O)c2c(-c3ccc(OC)cc3)c(C)cn2Cc2ccc(F)cc2)cc1 [Example 47]", "%", 67],
  ["COc1ccc(Cn2cc(C)c(-c3ccc(C)cc3)c2C(=O)N(C)CC(=O)OCc2ccccc2)cc1 [Example 39]", "%", 54],
  ["COc1cc(OC)c(CN2CCN(C(=O)c3c(-c4ccc(C)cc4)c(C)cn3C)CC2)c(OC)c1 [Example 49]", "%", 30],
  ["Cc1cn(Cc2ccc(F)cc2)c(C(=O)NCCCN(C)C)c1-c1ccco1 [Example 63]", "%", 50]
]}

* * *

assayed.target: 5-HT uptake (Rattus norvegicus, UniProt P31652)
Construct: from tissue; host or cells: rat brain medulla and pons, synaptosomes (P2 fraction)
Sequence (P31652 whole entry): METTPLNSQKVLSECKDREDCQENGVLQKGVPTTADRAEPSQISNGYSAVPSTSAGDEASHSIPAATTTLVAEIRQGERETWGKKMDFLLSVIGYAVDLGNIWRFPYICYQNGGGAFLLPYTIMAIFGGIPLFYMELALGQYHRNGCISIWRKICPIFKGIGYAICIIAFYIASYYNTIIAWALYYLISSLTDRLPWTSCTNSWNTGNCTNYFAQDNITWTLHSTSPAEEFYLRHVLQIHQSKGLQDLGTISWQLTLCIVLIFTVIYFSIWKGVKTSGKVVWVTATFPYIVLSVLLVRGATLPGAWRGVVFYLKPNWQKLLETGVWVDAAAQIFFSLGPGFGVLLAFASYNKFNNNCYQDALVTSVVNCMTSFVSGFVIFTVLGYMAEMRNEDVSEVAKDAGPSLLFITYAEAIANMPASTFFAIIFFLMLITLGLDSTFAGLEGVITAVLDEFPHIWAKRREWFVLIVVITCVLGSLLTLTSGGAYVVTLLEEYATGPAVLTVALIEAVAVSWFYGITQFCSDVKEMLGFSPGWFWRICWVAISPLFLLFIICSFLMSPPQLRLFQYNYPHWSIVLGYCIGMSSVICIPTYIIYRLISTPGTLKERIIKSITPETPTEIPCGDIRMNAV
test.method.notes: 5-HT uptake inhibition in rat brain synaptosomes
Type: biochemical
recorded.conditions: synaptosomes from rat medulla and pons, [3H]-5-HT

{"columns": ["compound", "readout.units", "inhibition at 10 µM"],
 "data": [
  ["Cc1cn(Cc2ccccc2F)c(C(=O)NCCCn2ccnc2)c1-c1ccc(Cl)cc1", "%", 50],
  ["COc1ccc(-c2c(C)cn(Cc3ccc(F)cc3)c2C(=O)NC(C)C(=O)OCc2ccccc2)cc1 (stereo not drawn)", "%", 52],
  ["Cc1ccc(Cn2cc(C)c(-c3ccc(C)cc3)c2C(=O)N2CCN(c3ccc(C)cc3C)CC2)cc1", "%", 50],
  ["Cc1cn(C)c(C(=O)N2CCN(C3CCCCCC3)CC2)c1-c1ccco1", "%", 52],
  ["COc1ccc(Cn2cc(C)c(-c3ccco3)c2C(=O)NC2CCCc3ccccc32)cc1 (stereo not drawn)", "%", 68],
  ["Cc1ccc(-c2c(C)cn(C)c2C(=O)N2CCN(C3CCCCCC3)CC2)cc1", "%", 54],
  ["Cc1cn(C)c(C(=O)N2CCN(c3ccncc3)CC2)c1-c1ccc(Cl)cc1", "%", 66],
  ["CCn1cc(C)c(-c2ccc(Cl)cc2)c1C(=O)NCc1cccc(OC)c1OC", "%", 37],
  ["COc1ccc(-c2c(C)cn(C)c2C(=O)N2CCN(c3cccc(Cl)c3)CC2)cc1", "%", 54]
]}

* * *

assayed.target: NA transporter (Rattus norvegicus)
Construct: from tissue; host or cells: rat brain hypothalamus, synaptosomes (P2 fraction)
Sequence (Q63380 1-617): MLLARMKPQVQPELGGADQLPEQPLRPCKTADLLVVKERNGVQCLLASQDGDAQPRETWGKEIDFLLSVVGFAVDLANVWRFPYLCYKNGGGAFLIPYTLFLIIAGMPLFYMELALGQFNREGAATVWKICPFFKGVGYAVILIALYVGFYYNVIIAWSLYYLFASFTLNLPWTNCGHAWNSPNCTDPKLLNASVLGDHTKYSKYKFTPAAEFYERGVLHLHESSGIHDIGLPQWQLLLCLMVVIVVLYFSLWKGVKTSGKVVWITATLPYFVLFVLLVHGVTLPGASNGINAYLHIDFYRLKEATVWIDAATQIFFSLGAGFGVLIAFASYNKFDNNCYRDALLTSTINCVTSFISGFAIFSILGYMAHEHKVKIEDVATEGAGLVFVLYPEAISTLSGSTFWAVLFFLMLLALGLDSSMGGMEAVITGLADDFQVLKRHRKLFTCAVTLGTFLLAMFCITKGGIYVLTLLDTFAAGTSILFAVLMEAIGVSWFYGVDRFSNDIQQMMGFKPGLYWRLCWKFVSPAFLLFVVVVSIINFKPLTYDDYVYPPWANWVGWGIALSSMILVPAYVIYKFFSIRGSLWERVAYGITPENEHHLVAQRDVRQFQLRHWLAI
test.method.notes: Noradrenalin uptake inhibition in rat brain synaptosomes
Type: biochemical
recorded.conditions: synaptosomes from rat hypothalamus, [3H]-NA
Parameter: inhibition at 10 µM. Scope: all listed entries.

{"columns": ["molecule", "inhibition at 10 µM, %"],
 "data": [
  ["Cc1cn(CC(C)C)c(C(=O)NCc2ccc(N(C)C)cc2)c1-c1ccc(Cl)cc1", 35],
  ["Cc1cn(Cc2ccccc2)c(C(=O)NCc2ccccn2)c1-c1ccccc1", 33],
  ["Cc1cn(Cc2ccccc2)c(C(=O)N2CCN(c3ccccc3Cl)CC2)c1-c1ccc(Cl)cc1", 70],
  ["Cc1cn(Cc2ccccc2)c(C(=O)NC(C)c2ccc3ccccc3c2)c1-c1ccco1 (stereo not shown)", 57],
  ["Cc1cn(C)c(C(=O)NCc2ccc(F)cc2C(F)(F)F)c1-c1ccco1", 30],
  ["CCN(CC)CCCNC(=O)c1c(-c2ccc(Cl)cc2)c(C)cn1CC(C)C", 35],
  ["Cc1cn(C)c(C(=O)NCCCN2CCCCC2C)c1-c1ccc(Cl)cc1 (stereo not shown)", 32],
  ["Cc1ccc(-c2c(C)cn(C)c2C(=O)N2CCN(C3CCCCCC3)CC2)cc1", 33],
  ["COc1ccc(-c2c(C)cn(Cc3ccc(F)cc3)c2C(=O)NCCc2cccs2)cc1", 37],
  ["COc1ccc(-c2c(C)cn(C)c2C(=O)N2CCN(c3cccc(Cl)c3)CC2)cc1", 69],
  ["Cc1cn(Cc2ccc(F)cc2)c(C(=O)NCCCN(C)C)c1-c1ccco1", 57],
  ["Cc1cn(C)c(C(=O)N2CCN(C3CCCCCC3)CC2)c1-c1ccco1", 34],
  ["Cc1ccccc1N1CCN(C(=O)c2c(-c3ccc(Cl)cc3)c(C)cn2C)CC1", 63]
]}
